Tested on: UACC-257 melanoma
ASSAY_PROCEDURE: NCI tumour cell line growth inhibition, 48 h
PROPERTY_MEASURED: TGI

SMILES_CODE	OBSERVED_MEASUREMENT
COc1ccc2c(c1)[C@]1(C[C@H]1c1ccc3c(/C=C/c4ccc(CN5C[C@@H](C)O[C@@H](C)C5)cc4)n[nH]c3c1)C(=O)N2	> 60.5 µM
N#CC(C#N)=Cc1c(-c2ccccc2)[nH]c2ccccc12	> 64.7 µM
CC(=O)OCCOCNC(=S)N/N=C/c1ccc2ccccc2n1	> 100 µM

###

Test system: HCT-15 colon
ASSAY_PROCEDURE: NCI tumour cell line growth inhibition, 48 h

COMPOUND	TGI
CC1=CC[C@@H]2C(C)(C)C(=O)CC[C@@]2(C)[C@@H]1COc1ccc2ccc(=O)oc2c1	56.4 µM
COC1C(O)C(C)OC(OC2C(Oc3cccc4c(O)c5c(=O)oc6ccc(C)c7c(=O)oc(c34)c5c67)OC(C)C3O[C@H](c4ccccc4)OC32)C1O (stereo partly specified)	6.65 µM
O=C(COc1ccc(/C=C2\Oc3ccccc3C2=O)cc1)Nc1nccs1	> 100 µM
C#CCn1c(=O)ccn(/C(=C\C(=O)OCC)C(=O)OCC)c1=O	6.63 µM
CC(C)N(C(=O)C12C3C4C5C3C1(C(=O)N(C(C)C)C(C)C)C5(C#N)C42)C(C)C (stereo unspecified)	> 100 µM
CC1(C)CC(=O)/C(=C/C2CCNC2=S)C(=O)N1 (stereo unspecified)	> 100 µM
N#CC(C#N)=Cc1c(-c2ccccc2)[nH]c2ccccc12	> 47.3 µM
C=CCC1C(=O)C(C(=O)OC)N2CCc3c([nH]c4ccccc34)C12 (stereo unspecified)	> 100 µM
COc1cc2c(c(OC)c1OC)C(=O)CC(c1cccc(NC(=O)c3ccc(Br)cc3)c1)O2 (stereo unspecified)	> 100 µM
Clc1ccccc1C(n1ncc2ccccc21)n1ncc2ccccc21	> 100 µM
CC(C)(C)OC(=O)NC1CC=CCC1NC(=O)OC(C)(C)C (stereo unspecified)	> 100 µM
